Data origin, for the record: ChEMBL document CHEMBL4312009

inhibition values by entry
tested on: GTPase KRas (Homo sapiens), P01116 [UNDEFINED MUTATION]; test: Inhibition of KRas mutant in human HCT116 cells assessed as cell viability by measuring ATP at 0.2 uM relative to control; type: cell-based
Sequence (P01116 whole entry, looked up, change not shown): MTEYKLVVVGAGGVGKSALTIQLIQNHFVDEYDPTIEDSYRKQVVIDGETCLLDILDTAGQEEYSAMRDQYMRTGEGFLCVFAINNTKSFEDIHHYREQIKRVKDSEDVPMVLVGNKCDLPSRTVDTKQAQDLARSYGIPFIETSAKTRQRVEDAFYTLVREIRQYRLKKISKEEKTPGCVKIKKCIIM

# Chem Smiles, inhibition / %
measured = [
    ("CCCCc1c2c(c(C)c3c1C(=O)OC3)Oc1ccccc1O2", 5),
    ("CCCCCc1c2c(c(C)c3c1C(=O)OC3)Oc1ccccc1O2", 20),
    ("CCCCc1c2c(c(C)c3c1Oc1ccccc1O3)C(=O)OC2", 39),
]

----------
Measured inhibition values are reported for all entries that follow.
target: Microtubule-associated protein tau (Homo sapiens) (UniProt P10636); assay: Inhibition of human Tau at 40 uM relative to control
Sequence (P10636 whole entry): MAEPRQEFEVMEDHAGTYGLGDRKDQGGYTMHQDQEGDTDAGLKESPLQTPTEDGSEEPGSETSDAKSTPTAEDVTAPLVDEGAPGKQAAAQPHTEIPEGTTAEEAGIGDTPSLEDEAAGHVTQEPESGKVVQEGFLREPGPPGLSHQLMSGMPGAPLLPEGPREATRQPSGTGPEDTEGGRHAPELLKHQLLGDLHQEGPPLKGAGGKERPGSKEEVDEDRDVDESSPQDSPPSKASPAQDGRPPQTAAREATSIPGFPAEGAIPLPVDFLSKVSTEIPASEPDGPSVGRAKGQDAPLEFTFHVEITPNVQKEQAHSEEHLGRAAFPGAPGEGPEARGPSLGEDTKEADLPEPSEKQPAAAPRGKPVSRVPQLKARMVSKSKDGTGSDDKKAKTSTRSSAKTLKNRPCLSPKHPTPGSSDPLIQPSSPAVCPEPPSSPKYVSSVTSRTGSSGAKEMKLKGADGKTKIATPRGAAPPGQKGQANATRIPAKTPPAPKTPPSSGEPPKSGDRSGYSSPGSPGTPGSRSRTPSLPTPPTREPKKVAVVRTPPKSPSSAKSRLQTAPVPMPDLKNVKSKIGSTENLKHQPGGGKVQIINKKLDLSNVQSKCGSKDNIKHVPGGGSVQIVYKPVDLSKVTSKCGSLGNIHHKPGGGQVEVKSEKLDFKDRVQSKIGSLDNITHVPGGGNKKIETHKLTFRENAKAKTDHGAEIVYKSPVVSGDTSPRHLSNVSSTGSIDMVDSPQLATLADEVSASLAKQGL
Reported Endpoint: inhibition (%)

# Chem Smiles, Quantity Unit, Reported
rows = [
    ("CCCCCc1c2c(c(C)c3c1C(=O)OC3)Oc1ccccc1O2", "%", 88),
    ("CCCCCCc1c2c(c(C)c3c1C(=O)OC3)Oc1ccccc1O2", "%", 77),
    ("CCCCCc1c2c(c(C)c3c1C(=O)OC3)Oc1ccc(OC)cc1O2", "%", 60),
    ("Cc1c2c(c(CCCCBr)c3c1C(=O)OC3)Oc1ccccc1O2", "%", 35),
    ("Cc1c2c(c(CCCCBr)c3c1Oc1ccccc1O3)C(=O)OC2", "%", 56),
    ("CCCCc1c2c(c(C)c3c1C(=O)OC3)Oc1ccccc1O2", "%", 92),
    ("CCCCCc1c2c(c(C)c3c1Oc1cc(OC)ccc1O3)C(=O)OC2", "%", 23),
    ("CCCCCCc1c2c(c(C)c3c1Oc1ccccc1O3)C(=O)SC2", "%", 30),
    ("CCCCCCc1c2c(c(C)c3c1Oc1ccccc1O3)C(=O)OC2", "%", 11),
    ("CCCCCCc1c2c(c(C)c3c1C(=O)SC3)Oc1ccccc1O2", "%", 20),
    ("CCCCc1c2c(c(C)c3c1Oc1ccccc1O3)C(=O)OC2", "%", 8),
]

----------
List of inhibition values.
tested on: GTPase KRas (Homo sapiens), P01116 [UNDEFINED MUTATION]; test: Inhibition of KRas mutant in human HCT116 cells assessed as cell viability by measuring ATP at 0.2 uM relative to control; format: cell-based

# Chem Smiles, inhibition / %
records = [
    ("CCCCCCc1c2c(c(C)c3c1Oc1ccccc1O3)C(=O)SC2", -10),
    ("Cc1c2c(c(CCCCBr)c3c1Oc1ccccc1O3)C(=O)OC2", 33),
    ("CCCCCc1c2c(c(C)c3c1Oc1ccccc1O3)C(=O)OC2", -9),
    ("Cc1c2c(c(CCCCBr)c3c1C(=O)OC3)Oc1ccccc1O2", 2),
    ("CCCCCCc1c2c(c(C)c3c1Oc1ccccc1O3)C(=O)OC2", -3),
    ("CCCCCCc1c2c(c(C)c3c1C(=O)OC3)Oc1ccccc1O2", 12),
]

----------
We begin with a simple list: items and their reported inhibition.
system: GTPase KRas (Homo sapiens), P01116 [UNDEFINED MUTATION]; assay: Inhibition of KRas mutant in human SW480 cells assessed as cell viability by measuring ATP at 0.2 uM relative to control; assay type: cell-based
Reported Endpoint: inhibition

# Chem Smiles, Reported
rows = [
    ("CCCCCCc1c2c(c(C)c3c1Oc1ccccc1O3)C(=O)SC2", "10%"),
    ("CCCCc1c2c(c(C)c3c1C(=O)OC3)Oc1ccccc1O2", "17%"),
    ("CCCCCc1c2c(c(C)c3c1C(=O)OC3)Oc1ccccc1O2", "20%"),
    ("CCCCc1c2c(c(C)c3c1Oc1ccccc1O3)C(=O)OC2", "12%"),
]

----------
system: GTPase KRas (Homo sapiens), P01116 [UNDEFINED MUTATION]; experiment: Inhibition of KRas mutant in human SW480 cells assessed as cell viability by measuring ATP at 0.2 uM relative to control; format: cell-based
Reported inhibition values for a set of compounds

# Chem Smiles, inhibition, %
records = [
    ("CCCCCCc1c2c(c(C)c3c1C(=O)SC3)Oc1ccccc1O2", 13),
    ("CCCCCc1c2c(c(C)c3c1Oc1ccccc1O3)C(=O)OC2", 11),
    ("Cc1c2c(c(CCCCBr)c3c1Oc1ccccc1O3)C(=O)OC2", 7),
    ("CCCCCCc1c2c(c(C)c3c1C(=O)OC3)Oc1ccccc1O2", 21),
    ("CCCCCc1c2c(c(C)c3c1C(=O)OC3)Oc1ccc(OC)cc1O2", 15),
    ("CCCCCCc1c2c(c(C)c3c1Oc1ccccc1O3)C(=O)OC2", 16),
]

----------
inhibition values, listed per item
system: GTPase KRas (Homo sapiens), P01116 [UNDEFINED MUTATION]; assay: Inhibition of KRas mutant in human HCT116 cells assessed as cell viability by measuring ATP at 2 uM relative to control; assay type: cell-based
Reported Endpoint: inhibition (%)

# Chem Smiles, Reported Endpoint, Reported
rows = [
    ("CCCCCc1c2c(c(C)c3c1C(=O)OC3)Oc1ccc(OC)cc1O2", "inhibition", 7.9),
    ("CCCCCCc1c2c(c(C)c3c1C(=O)SC3)Oc1ccccc1O2", "inhibition", 10),
    ("CCCCCc1c2c(c(C)c3c1C(=O)OC3)Oc1ccccc1O2", "inhibition", 62),
    ("CCCCCCc1c2c(c(C)c3c1C(=O)OC3)Oc1ccccc1O2", "inhibition", 60),
    ("CCCCc1c2c(c(C)c3c1C(=O)OC3)Oc1ccccc1O2", "inhibition", 66),
    ("Cc1c2c(c(CCCCBr)c3c1Oc1ccccc1O3)C(=O)OC2", "inhibition", 56),
    ("CCCCCCc1c2c(c(C)c3c1Oc1ccccc1O3)C(=O)OC2", "inhibition", 7),
    ("CCCCc1c2c(c(C)c3c1Oc1ccccc1O3)C(=O)OC2", "inhibition", 7),
    ("Cc1c2c(c(CCCCBr)c3c1C(=O)OC3)Oc1ccccc1O2", "inhibition", 9.5),
    ("CCCCCCc1c2c(c(C)c3c1Oc1ccccc1O3)C(=O)SC2", "inhibition", 2.9),
    ("CCCCCc1c2c(c(C)c3c1Oc1ccccc1O3)C(=O)OC2", "inhibition", 12),
]

----------
molecular target: Sodium channel protein type 9 subunit alpha (Homo sapiens) (UniProt Q15858); test: Inhibition of human Nav1.7 at 40 uM relative to control
Sequence (Q15858 whole entry, looked up): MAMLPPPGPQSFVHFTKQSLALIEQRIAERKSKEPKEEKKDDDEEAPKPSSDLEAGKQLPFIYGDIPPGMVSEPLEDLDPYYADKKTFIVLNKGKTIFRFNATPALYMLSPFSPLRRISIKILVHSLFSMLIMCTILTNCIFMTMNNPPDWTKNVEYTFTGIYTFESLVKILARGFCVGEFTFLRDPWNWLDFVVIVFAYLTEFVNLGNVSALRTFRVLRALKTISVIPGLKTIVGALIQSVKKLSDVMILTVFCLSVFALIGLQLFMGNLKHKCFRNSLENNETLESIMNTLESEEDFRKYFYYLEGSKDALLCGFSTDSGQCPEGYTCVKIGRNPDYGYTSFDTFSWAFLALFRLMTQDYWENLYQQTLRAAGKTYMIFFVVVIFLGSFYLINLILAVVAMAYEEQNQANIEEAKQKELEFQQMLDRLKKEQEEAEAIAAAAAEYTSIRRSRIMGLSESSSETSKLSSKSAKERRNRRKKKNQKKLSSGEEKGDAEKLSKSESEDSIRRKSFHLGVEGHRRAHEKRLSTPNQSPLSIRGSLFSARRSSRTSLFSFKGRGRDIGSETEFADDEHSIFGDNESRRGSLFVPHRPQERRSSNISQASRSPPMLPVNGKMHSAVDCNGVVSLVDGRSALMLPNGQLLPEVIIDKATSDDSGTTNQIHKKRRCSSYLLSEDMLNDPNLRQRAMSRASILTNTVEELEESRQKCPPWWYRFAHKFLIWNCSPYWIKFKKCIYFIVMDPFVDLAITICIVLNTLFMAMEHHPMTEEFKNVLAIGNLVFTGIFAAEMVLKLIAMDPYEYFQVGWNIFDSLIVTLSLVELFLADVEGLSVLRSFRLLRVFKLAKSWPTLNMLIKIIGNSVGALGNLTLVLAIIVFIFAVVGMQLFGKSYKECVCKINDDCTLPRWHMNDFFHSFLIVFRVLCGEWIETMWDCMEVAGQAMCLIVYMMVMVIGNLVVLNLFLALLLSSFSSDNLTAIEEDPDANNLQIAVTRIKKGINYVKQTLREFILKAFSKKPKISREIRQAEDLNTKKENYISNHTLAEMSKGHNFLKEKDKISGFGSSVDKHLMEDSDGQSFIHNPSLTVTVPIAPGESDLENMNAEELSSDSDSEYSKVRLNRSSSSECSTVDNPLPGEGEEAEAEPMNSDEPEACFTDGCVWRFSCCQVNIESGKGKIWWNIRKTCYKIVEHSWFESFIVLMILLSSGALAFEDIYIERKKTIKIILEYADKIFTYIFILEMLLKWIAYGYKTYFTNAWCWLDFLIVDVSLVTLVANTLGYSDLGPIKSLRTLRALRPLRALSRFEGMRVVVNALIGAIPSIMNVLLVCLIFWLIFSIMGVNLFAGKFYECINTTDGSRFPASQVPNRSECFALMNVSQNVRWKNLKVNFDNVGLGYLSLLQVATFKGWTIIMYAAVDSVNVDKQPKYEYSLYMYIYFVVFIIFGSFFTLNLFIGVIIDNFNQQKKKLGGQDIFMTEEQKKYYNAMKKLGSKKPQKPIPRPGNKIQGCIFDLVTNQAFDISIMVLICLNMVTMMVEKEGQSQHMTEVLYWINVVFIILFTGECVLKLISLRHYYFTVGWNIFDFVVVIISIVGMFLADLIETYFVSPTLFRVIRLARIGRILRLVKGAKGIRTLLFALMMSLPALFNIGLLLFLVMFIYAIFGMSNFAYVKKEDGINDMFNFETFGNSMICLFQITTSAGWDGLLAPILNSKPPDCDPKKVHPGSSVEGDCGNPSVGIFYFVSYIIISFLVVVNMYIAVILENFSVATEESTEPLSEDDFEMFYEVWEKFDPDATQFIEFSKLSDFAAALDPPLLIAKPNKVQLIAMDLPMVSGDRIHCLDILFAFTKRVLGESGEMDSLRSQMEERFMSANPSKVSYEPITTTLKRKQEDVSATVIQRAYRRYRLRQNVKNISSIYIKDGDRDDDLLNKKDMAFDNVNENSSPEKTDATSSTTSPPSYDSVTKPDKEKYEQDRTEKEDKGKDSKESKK
Quick rule for you: inhibition at 20% or higher means Criterion met, lower means Criterion not met.

# Chem Smiles, Assigned Category
measured = [
    ("Cc1c2c(c(CCCCBr)c3c1Oc1ccccc1O3)C(=O)OC2", "Criterion not met"),
    ("CCCCCc1c2c(c(C)c3c1C(=O)OC3)Oc1ccc(OC)cc1O2", "Criterion met"),
    ("CCCCCCc1c2c(c(C)c3c1Oc1ccccc1O3)C(=O)OC2", "Criterion not met"),
    ("CCCCCCc1c2c(c(C)c3c1C(=O)SC3)Oc1ccccc1O2", "Criterion not met"),
    ("CCCCCCc1c2c(c(C)c3c1Oc1ccccc1O3)C(=O)SC2", "Criterion not met"),
    ("CCCCc1c2c(c(C)c3c1C(=O)OC3)Oc1ccccc1O2", "Criterion met"),
    ("CCCCCc1c2c(c(C)c3c1C(=O)OC3)Oc1ccccc1O2", "Criterion met"),
]

----------
tested on: GTPase KRas (Homo sapiens), P01116 [UNDEFINED MUTATION]; assay: Inhibition of KRas mutant in human HCT116 cells […] assessed as cell viability by measuring ATP at 2 uM relative to control; type: cell-based
Reported Endpoint: inhibition (%)

# Chem Smiles, Reported
rows = [
    ("CCCCCc1c2c(c(C)c3c1Oc1ccccc1O3)C(=O)OC2", 28),
    ("CCCCCCc1c2c(c(C)c3c1C(=O)OC3)Oc1ccccc1O2", 69),
    ("CCCCc1c2c(c(C)c3c1C(=O)OC3)Oc1ccccc1O2", 63),
    ("Cc1c2c(c(CCCCBr)c3c1C(=O)OC3)Oc1ccccc1O2", 20),
    ("Cc1c2c(c(CCCCBr)c3c1Oc1ccccc1O3)C(=O)OC2", 58),
    ("CCCCCCc1c2c(c(C)c3c1Oc1ccccc1O3)C(=O)OC2", 10),
    ("CCCCCCc1c2c(c(C)c3c1C(=O)SC3)Oc1ccccc1O2", -4),
    ("CCCCCc1c2c(c(C)c3c1C(=O)OC3)Oc1ccc(OC)cc1O2", 8),
    ("CCCCCCc1c2c(c(C)c3c1Oc1ccccc1O3)C(=O)SC2", -5.6),
    ("CCCCc1c2c(c(C)c3c1Oc1ccccc1O3)C(=O)OC2", 0.4),
    ("CCCCCc1c2c(c(C)c3c1C(=O)OC3)Oc1ccccc1O2", 59),
]
